- System: MDA-MB-468 breast
- test.method.notes: NCI tumour cell line growth inhibition, 48 h; in the data active means GI50 below about 0.43 µM; inactive means the rest
Assign a class; possible classes are class 1 = active, class 0 = inactive

Look over these answered cases.
* OCCNc1nc(NCCO)nc(Nc2ccc(C3=NN(c4cc(Cl)cc(Cl)c4)C(c4ccc(Cl)cc4)C3)cc2)n1 (centres undefined) | class 0
* CCN(CC)c1ccc(/C=N/NC(=O)c2ccc(Nc3ccnc(C(F)(F)F)c3)cc2)c(O)c1 | class 1
* CCCCCC(=O)N1c2ccccc2NC2=C(C(=O)CC(c3ccc(OC)c(OC)c3)C2)C1c1ccc(C(F)(F)F)cc1 (centres undefined) | class 0

# next compound below
Dear all, I need the recorded test outcome for Cc1ccc(NC(=O)c2ccnc(C(F)(F)F)c2)cc1-c1cc(OCCO)nc(N2CCOCC2)c1 , thank you.
class 0

Reference source: PubChem BioAssay (NCI)
